# Experimental Details: in vivo
# Measurement Conditions: female, ICR CD-1, mouse, plasma, sc, 50 mg/kg, Plasma concentration MKM, s.c. 50 mg/kg, Time 0.25 (h), Mouse 1; linear range 1.6–50 µg/ml
Where a SMILES comes first, the peptide text is derived from it. Bridges are numbered along the chain shown (N, C = ends). [ ]: non-standard residue; d: D form. dOrn = NCCC[C@@H](N)C(=O)O
Measured Attribute: level at 0.25 h (ng/mL)
Express it in ng/mL; write the number only.

What does the record list as level at 0.25 h for C[C@@H](O)[C@@H]1NC(=O)[C@@H](CCCNC(=N)N)NC(=O)[C@@H](CCCNC(=N)N)NC(=O)[C@@H](CC(N)=O)NC(=O)[C@@H](NC(=O)[C@@H](Cc2ccccc2)NC(=O)[C@@H](CCCN)NC(=O)[C@H](N)CCCNC(=N)N)[C@@H](C)OC(=O)[C@H](Cc2c[nH]cn2)NC1=O [MKM-A, manikomycin] (H-[dR][dOrn][dF]T[dN][dR][dR]TH; ester 4-C) ?
6650
